Listed here are compounds together with their documented drug sensitivity score.
System: HepG2
measurement notes: drug sensitivity score (DSS) for viability; higher = more toxic; extreme values may be limits of the assay
test context: 72 h
# respond with the number and nothing more

compound	meas value
C[C@@H]1CCN(C(=O)CC#N)C[C@@H]1N(C)c1ncnc2[nH]ccc12	0

The compound listed as `Nc1ccc(S(=O)(=O)Nc2cnc3ccccc3n2)cc1` shows drug sensitivity score equal to 0

Input CC1=C(C(=O)Nc2cc3cn[nH]c3cc2F)C(c2ccc(C(F)(F)F)cc2)CC(=O)N1 (configuration not stated) . Output drug sensitivity score: 0

====

Test system: A549-ACE2
measurement notes: drug-induced phospholipidosis relative to tamoxifen; higher = more phospholipidosis
test context: 3.33333 µM; 72 h
Respond with rule met for drug-induced phospholipidosis values of 20% and above, rule not met for values below.

Solved entries (count: 4):
smiles str	assayed target	discrete label
Cc1ncc(NC(=O)c2ccc(CN3CCN(C)CC3)c(C(F)(F)F)c2)cc1Nc1nccc(-c2cccnc2)n1	A549-ACE2	rule met
Nc1nc(N)c(N=O)c(OCC2CCCCC2)n1	A549-ACE2	rule not met
Cc1c(-c2ccc(O)cc2)n(Cc2ccc(OCCN3CCCCCC3)cc2)c2ccc(O)cc12	A549-ACE2	rule not met
CN(C)c1ccccc1CN1CCCN(Cc2ccccc2N(C)C)C1c1ccncc1	A549-ACE2	rule met

// next entry
Please indicate if the recorded drug-induced phospholipidosis for `COc1ccc2cc1Oc1ccc(cc1)C[C@H]1c3c(cc4c(c3Oc3cc5c(cc3OC)CCN(C)[C@@H]5C2)OCO4)CCN1C` meets or exceeds 20%.
rule not met

====

Tested on: U2OS
measurement notes: cell viability relative to DMSO; higher = less toxic
test context: 72 h; 1000 nM
measured quantity: cell viability

Use the examples below as a reference point.
molecule	assayed target	cell viability
C[C@@H]1CCCN1CCc1cc2cc(-c3ccc(C#N)cc3)ccc2o1	U2OS	102%
O=C(Nc1c(Cl)cncc1Cl)c1ccc(OC(F)F)c(OCC2CC2)c1	U2OS	94.8%
O=C(Nc1ccc(-c2ccncc2)cc1)N[C@H](CO)c1ccccc1	U2OS	97.5%
COc1ccc2c3c([nH]c2c1)[C@H](CC(C)C)N1C(=O)[C@H](CCC(=O)OC(C)(C)C)NC(=O)[C@@H]1C3	U2OS	100%
COc1cc([C@@H]2c3cc4c(cc3[C@@H](O[C@@H]3O[C@@H]5CO[C@@H](C)O[C@H]5[C@H](O)[C@H]3O)[C@H]3COC(=O)[C@H]23)OCO4)cc(OC)c1OP(=O)(O)O [etoposide-phosphate]	U2OS	99.7%

In plain terms, N[C@@H](C(=O)O)c1ccc(C(=O)O)c(O)c1 (racemic) [4-carboxy-3-hydroxyphenylglycine-(RS)] has a documented cell viability of 98.7%

Kindly note the recorded cell viability for `CCc1cc2c(c(CC)n1)CCC(=O)N2Cc1ccc(-c2ccccc2-c2nnn[nH]2)cc1` , which is 99.3%

Measured cell viability of COc1cc(C)nc(-n2nc(C)cc2OC)n1 [epirizole] : 99.8%

For `Cc1c(CN(C)C(=O)/C=C/c2cnc3c(c2)CCC(=O)N3)oc2ccccc12` the molecule record lists cell viability as 101%

Entry C[N+](C)(C)CC(O)CC(=O)[O-] (configuration not stated) ; cell viability = 80.6%

// cell viability lookup, molecule = `CC(C)[C@H]1[C@@H]2CC[C@@H](C2)[C@@H]1N` , result: 93.6%

====

System: Caco-2
measurement notes: cell viability relative to DMSO; higher = less toxic
test context: 72 h; 10000 nM
The following compounds are listed with their measured cell viability values.
Report the value in % with no unit label.

Guide cases for cell viability, answers given:
compound	measured quantity	meas value
O=C(O)[C@H](Cc1c[nH]c2ccccc12)N1C(=O)c2ccccc2C1=O	cell viability	102
CC(=O)NCCc1c[nH]c2ccccc12	cell viability	102
N[C@@H](Cc1c[nH]c2ccccc12)C(=O)O	cell viability	97.5
COC(=O)Nc1nc2cc([S+]([O-])c3ccccc3)ccc2[nH]1 (stereo not given)	cell viability	97.5

Documented cell viability of `Cc1cc(O)c2c(c1)C(=O)c1cc(O)cc(O)c1C2=O` : 97

====

System: Caco-2
measurement notes: relative viability EC50 (midpoint between 100% and the lowest measured viability); higher = less toxic
test context: 72 h
measured quantity: relative viability EC50

Known results for compounds:
compound	relative viability EC50
NCCCCCNCC12CC3CC(CC(C3)C1)C2	> 10 µM
COC(=O)N1CCN(Cc2cccc(NC(=O)Nc3ccc(C)nc3)c2F)CC1	> 10 µM
OCc1cccnc1 [nicotinyl-alcohol-tartrate]	> 10 µM
CCOc1cc([C@@H](CS(C)(=O)=O)N2C(=O)c3cccc(NC(C)=O)c3C2=O)ccc1OC	> 10 µM
CC(C)[C@H]1[C@@H]2CC[C@@H](C2)[C@@H]1N	> 10 µM

Then this compound:
For record `Cc1cc(OCCN2CCOCC2)nn1-c1ccc2ccccc2c1` the listed relative viability EC50 is > 10 µM

====

Tested on: U2OS
measurement notes: cell viability relative to DMSO; higher = less toxic
test context: 72 h; 10 nM
The entries below come with measured cell viability values attached.
Give the number; % is assumed, so skip it.

molecule	measured quantity	meas value
CCCCc1ccc(NS(=O)(=O)c2ccc(F)cc2)cc1	cell viability	96.2
CC(C)(C)c1cc(C=C(C#N)C#N)cc(C(C)(C)C)c1O [tyrphostin-A9]	cell viability	97.9
COc1ccccc1N1CCN(CCN2C(=O)c3ccccc3C(C)(C)C2=O)CC1 [ARC-239]	cell viability	95.3
COc1ncc(-c2ccc3c(Nc4cc(Oc5cc(F)cc(F)c5)cc(C(=O)O)c4)c(S(=O)(=O)NC4CC4)cnc3c2)c(OC)n1	cell viability	104
CCN(CC)CCOC(=O)C1(C2CCCCC2)CCCCC1 [dicycloverine]	cell viability	99.3
OCc1cccnc1 [nicotinyl-alcohol-tartrate]	cell viability	104

// cell viability value for CC[C@H](C)[C@@H]1NC(=O)[C@H](Cc2ccc(OC)cc2)NC(=O)CCCSC[C@@H](C(=O)N2CCC[C@H]2C(=O)N[C@@H](CC(C)C)C(=O)NCC(N)=O)NC(=O)[C@H](CC(N)=O)NC(=O)[C@H](CCC(N)=O)NC1=O [carbetocin] : 91.3

Entry C[C@@H](O)[C@H]1C(=O)N2C(C(=O)O)=C(SCCNC=N)C[C@H]12 [imipenem] , cell viability reported as 98.2

response.value for CC(=O)[C@H]1CC[C@H]2[C@@H]3CCC4=CC(=O)CC[C@]4(C)[C@H]3CC[C@]12C [progesterone] (field: cell viability) = 98

According to the records, this molecule COCCNC(=O)Cn1cnc([N+](=O)[O-])n1 [sanazole] displays cell viability of 104

The reported cell viability of the molecule NCCC[C@H](N)C(=O)O [ornithine] was 93.5

What the record says about O=C1COc2nccc(-c3ccccc3F)c2CN1Cc1cc(C(F)(F)F)cc(C(F)(F)F)c1 [GPBAR-A] : cell viability is 103

// CC1Oc2cc(cnc2N)-c2c(nn(C)c2C#N)CN(C)C(=O)c2ccc(F)cc21 (configuration not stated) : cell viability value = 104

cell viability measured on COc1ccc(C(C)(C)C)cc1CN[C@H]1C2CCN(CC2)[C@H]1C(c1ccccc1)c1ccccc1 [maropitant] = 98.9

Sample CCCCCCCCN=c1ccn(CCCCCCCCCCn2ccc(=NCCCCCCCC)cc2)cc1 [octenidine] ; cell viability observed: 104

Note to self: cell viability recorded for `O=C(O)c1ccc(CN2CCC(CN[C@@H]3C[C@H]3c3ccccc3)CC2)cc1` was 96.8

According to the records, this molecule O=c1[nH]c2ccc(Cl)cc2c(N[C@@H]2CN3CCC2CC3)c1-c1nc2ccccc2[nH]1 [CHIR-124] displays cell viability of 96.9

====

Measured cell viability by item
Tested on: U2OS
measurement notes: cell viability relative to DMSO; higher = less toxic
test context: 72 h; 10000 nM
The response must be a number in % with no trailing unit.

According to the records, this molecule O=C(/C=C\n1cnc(-c2cc(C(F)(F)F)cc(C(F)(F)F)c2)n1)NNc1cnccn1 [selinexor] displays cell viability of 7.6

// sample CC1=C(C(=O)Nc2cc3cn[nH]c3cc2F)C(c2ccc(C(F)(F)F)cc2)CC(=O)N1 (stereo not drawn) , its cell viability was 86.3

// cell viability value for `Clc1ccc(N/N=C(\c2ccccc2)c2ccccn2)nc1` : 6.9

Reported cell viability for `O=[N+]([O-])c1cc(Cl)ccc1S(=O)(=O)c1ccccc1` was 102

====

Tested on: HepG2
measurement notes: cell viability relative to DMSO; higher = less toxic
test context: 72 h; 1000 nM
Attribute: cell viability
Your answer should be a plain number; it is taken to be in %.

The following compounds have reported results that may help.
compound	assayed target	quantity unit	cell viability
CC(Oc1c(Cl)cccc1Cl)C1=NCCN1 (centres undefined)	HepG2	%	90.7
COc1cc2c(Nc3ccc(NC(=O)c4ccccc4)cc3)ncnc2cc1OCCCN1CCOCC1	HepG2	%	108
Nc1ccc(-c2nc3ccc(-c4nc5ccc(N)cc5[nH]4)cc3[nH]2)cc1	HepG2	%	79.5
Clc1ccccc1CN1CCc2sccc2C1	HepG2	%	106
CC(C)Oc1ccc(-c2nn([C@@H](C)c3oc4ccc(F)cc4c(=O)c3-c3cccc(F)c3)c3ncnc(N)c23)cc1F	HepG2	%	111
Cc1cn([C@H]2O[C@@H](CO)[C@H](O)[C@H]2F)c(=O)[nH]c1=O	HepG2	%	95.2

Measured cell viability, `Clc1ccc(N/N=C(\c2ccccc2)c2ccccn2)nc1` : 6.2

`CN1CC(=O)N=C1NC(=O)Nc1cccc(Cl)c1` yielded cell viability of 97

Memo: `O=C(O)c1ccc(CN2CCC(CN[C@@H]3C[C@H]3c3ccccc3)CC2)cc1` , reported cell viability: 92.5
